Data provenance: patent US10738030B2

Known Emax of a selection of molecules
biological target: F508del (Homo sapiens, UniProt P13569, DEL508-508); construct: expressed in transfected cells; experiment: Membrane potential optical assay (FRET voltage-sensor dyes), identification of correction compounds; type: cell-based; conditions: maximum efficacy; NIH3T3 cells stably expressing F508del; procedures described above; read-out: Max Efficacy
Sequence (P13569 with tags, fused parts or gaps DEL508-508): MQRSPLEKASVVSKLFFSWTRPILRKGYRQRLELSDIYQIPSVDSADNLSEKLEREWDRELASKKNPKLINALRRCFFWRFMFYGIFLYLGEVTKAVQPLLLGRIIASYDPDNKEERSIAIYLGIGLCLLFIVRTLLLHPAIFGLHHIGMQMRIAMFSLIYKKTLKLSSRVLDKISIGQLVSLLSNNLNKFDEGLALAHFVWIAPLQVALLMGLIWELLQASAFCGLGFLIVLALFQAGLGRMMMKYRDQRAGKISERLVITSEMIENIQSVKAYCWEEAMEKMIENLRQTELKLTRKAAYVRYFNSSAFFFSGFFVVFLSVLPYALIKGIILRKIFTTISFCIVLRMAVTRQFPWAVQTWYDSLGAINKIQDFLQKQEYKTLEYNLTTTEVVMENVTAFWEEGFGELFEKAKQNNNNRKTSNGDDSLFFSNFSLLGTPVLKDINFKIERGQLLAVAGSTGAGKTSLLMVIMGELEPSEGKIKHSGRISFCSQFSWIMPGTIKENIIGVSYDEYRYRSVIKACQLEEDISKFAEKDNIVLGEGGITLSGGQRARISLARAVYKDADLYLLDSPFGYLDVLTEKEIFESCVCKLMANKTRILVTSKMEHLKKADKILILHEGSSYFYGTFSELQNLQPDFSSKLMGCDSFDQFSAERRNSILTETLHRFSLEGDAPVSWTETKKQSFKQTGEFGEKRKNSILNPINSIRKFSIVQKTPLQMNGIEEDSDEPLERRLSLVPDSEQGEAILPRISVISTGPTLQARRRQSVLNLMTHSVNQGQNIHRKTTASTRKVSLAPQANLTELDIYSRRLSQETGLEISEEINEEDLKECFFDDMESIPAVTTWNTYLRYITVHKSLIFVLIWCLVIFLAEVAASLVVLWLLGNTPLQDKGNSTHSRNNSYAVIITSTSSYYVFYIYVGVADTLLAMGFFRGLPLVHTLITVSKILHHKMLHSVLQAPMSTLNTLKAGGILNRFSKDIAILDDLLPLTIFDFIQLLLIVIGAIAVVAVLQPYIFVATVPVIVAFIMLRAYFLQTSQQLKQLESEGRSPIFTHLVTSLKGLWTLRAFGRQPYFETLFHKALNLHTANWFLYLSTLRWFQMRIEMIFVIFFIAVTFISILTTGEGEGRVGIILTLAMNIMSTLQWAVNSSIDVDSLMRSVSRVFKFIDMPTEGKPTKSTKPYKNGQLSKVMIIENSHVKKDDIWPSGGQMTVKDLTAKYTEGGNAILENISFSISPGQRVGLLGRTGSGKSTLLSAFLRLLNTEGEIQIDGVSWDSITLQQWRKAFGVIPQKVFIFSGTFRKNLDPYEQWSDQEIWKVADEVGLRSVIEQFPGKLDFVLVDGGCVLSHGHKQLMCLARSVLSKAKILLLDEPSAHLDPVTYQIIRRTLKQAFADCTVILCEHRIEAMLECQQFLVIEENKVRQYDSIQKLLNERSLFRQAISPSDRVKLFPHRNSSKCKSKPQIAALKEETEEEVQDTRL

CC(C)COc1cc(F)cc(-c2ccc(C(=O)NS(=O)(=O)c3cccc(N)n3)c(OCC(C)(C)C)n2)c1: > 80%
CCOc1nc(-c2cc(F)cc(OCC(C)C)c2)ccc1C(=O)NS(=O)(=O)c1cccc(N)n1: 30 to 80%
CC(C)COc1cc(F)cc(-c2ccc(C(=O)NS(=O)(=O)c3cccc(N)n3)c(OC(C)CC(F)(F)F)n2)c1 (stereo not shown): 30 to 80%

Query string: Param readout = Emax; param system = F508del (Homo sapiens, UniProt P13569, DEL508-508); param query = CC(C)COc1cc(F)cc(-c2ccc(C(=O)NS(=O)(=O)c3cccc(N)n3)c(OC(C(C)C)C(C)(C)C)n2)c1 (stereo not shown) ; response: value
Result string: 30 to 80%

Query string: Continue with CC(C)COc1cc(F)cc(-c2ccc(C(=O)NS(=O)(=O)c3cccc(N)n3)c(OCCOC(C)C)n2)c1
Result string: 30 to 80%

Query string: Further, for C=C(C)COc1nc(-c2cc(F)cc(OCC(C)C)c2)ccc1C(=O)NS(=O)(=O)c1cccc(N)n1 ?
Result string: > 80%

Query string: Also need C=CC(C)Oc1nc(-c2cc(F)cc(OCC(C)C)c2)ccc1C(=O)NS(=O)(=O)c1cccc(N)n1 (stereo not shown) , thanks.
Result string: > 80%

* * *

biological target: F508del (Homo sapiens, UniProt P13569, DEL508-508); experiment: Membrane potential optical assay (FRET voltage-sensor dyes), identification of correction compounds; conditions: modulation of CFTR activity; NIH3T3 cells stably expressing F508del; procedures described above
Listed next: entries and their corresponding EC50.

Please review the entries below; each comes with its answer.
CC(C)COc1cc(F)cc(-c2ccc(C(=O)NS(=O)(=O)c3cccc(N)n3)c(N(C)CC(C)(C)C)n2)c1: < 3 µM
CC(C)COc1cc(F)cc(-c2ccc(C(=O)NS(=O)(=O)c3ccn[nH]3)c(NCCC(C)(C)C)n2)c1: 3 to 10 µM

Next molecule, please.
Query string: If you can, please state the reported EC50 value of CCN(CC)c1nc(-c2cc(F)cc(OCC(C)C)c2)ccc1C(=O)NS(=O)(=O)c1cccc(N)n1 .
Result string: < 3 µM

* * *

target: F508del (Homo sapiens, UniProt P13569, DEL508-508); construct: expressed in transfected cells; test: Membrane potential optical assay (FRET voltage-sensor dyes), identification of correction compounds; format: cell-based; details: maximum efficacy; NIH3T3 cells stably expressing F508del; procedures described above; read-out: Max Efficacy
experimental endpoint: Emax

Known results for compounds:
CCN(C)c1nc(-c2cc(F)cc(OCC(C)C)c2)ccc1C(=O)NS(=O)(=O)c1cccc(N)n1 [Compound 67]: > 80%
CC(C)CCOc1nc(-c2cc(F)cc(OCC(C)C)c2)ccc1C(=O)NS(=O)(=O)c1cccc(N)n1 [Compound 2]: > 80%
CCC(CC)N(C)c1nc(-c2cc(F)cc(OCC(C)C)c2)ccc1C(=O)NS(=O)(=O)c1cccc(N)n1 [Compound 69]: > 80%
CCCC(C)C(C)Oc1nc(-c2cc(F)cc(OCC(C)C)c2)ccc1C(=O)NS(=O)(=O)c1cccc(N)n1 (stereo not drawn) [Compound 62]: 30 to 80%
CCN(c1nc(-c2ccc(OC(C)C)nc2)ccc1C(=O)NS(=O)(=O)c1cccc(N)n1)C(C)C [Compound 14]: 30 to 80%
COCC(C)Oc1nc(-c2cc(F)cc(OCC(C)C)c2)ccc1C(=O)NS(=O)(=O)c1cccc(N)n1 (stereo not drawn) [Compound 23]: 30 to 80%
CCOCC(C)Oc1nc(-c2cc(F)cc(OCC(C)C)c2)ccc1C(=O)NS(=O)(=O)c1cccc(N)n1 (stereo not drawn) [Compound 71]: 30 to 80%
CC(C)COc1cc(F)cc(-c2ccc(C(=O)NS(=O)(=O)c3cccc(N)n3)c(N(C)CC(C)(C)C)n2)c1 [Compound 52]: > 80%

Query string: Query (compound): CC(C)COc1cc(F)cc(-c2ccc(C(=O)NS(=O)(=O)c3cccc(N)n3)c(OC(C)C(F)(F)C(F)F)n2)c1 (stereo not drawn) [Compound 6] ; field requested: Emax
Result string: 30 to 80%

Query string: Also check CC(C)COc1cc(F)cc(-c2ccc(C(=O)NS(=O)(=O)c3cccc(N)n3)c(OC(C)C(F)(F)F)n2)c1 (stereo not drawn) [Compound 73]
Result string: 30 to 80%

Query string: Now consider CCCN(C)c1nc(-c2cc(F)cc(OCC(C)C)c2)ccc1C(=O)NS(=O)(=O)c1cccc(N)n1 [Compound 64] and answer again.
Result string: > 80%

Query string: Now consider CC(C)Oc1nc(C(C)(C)C)ccc1C(=O)NS(=O)(=O)c1cccc(N)n1 [Compound 45] and answer again.
Result string: 30 to 80%

Query string: Okay, and COC(C)(C)CCOc1nc(-c2cc(F)cc(OCC(C)C)c2)ccc1C(=O)NS(=O)(=O)c1cccc(N)n1 [Compound 22] ?
Result string: 30 to 80%

Query string: How about CC(C)COc1cc(F)cc(-c2ccc(C(=O)NS(=O)(=O)c3cccc(N)n3)c(OC(C)C(C)(C)C)n2)c1 (stereo not drawn) [Compound 25] ?
Result string: 30 to 80%

Query string: # repeat for CC(C)COc1cc(F)cc(-c2ccc(C(=O)NS(=O)(=O)c3cccc(N)n3)c(N(C)CC(F)(F)F)n2)c1 [Compound 66]
Result string: > 80%
